test system: GENE-TOX genotoxicity assays, various organisms and cells; assay: GENE-TOX mutagenicity studies; conditions: Species/Cell Type: Drosophila melanogaster; Assay Type: Aneuploidy, sex chromosome gain, chromosome aberrations; Assay Code: DAGT; Evaluation Type: Evaluation A (Pre-1980)
ASSAY READOUT: mutagenic call

Worked examples follow.
# COMPOUND, TGT, mutagenic call
records = [
    ("CCNc1nc(Cl)nc(NC(C)(C)C#N)n1", "GENE-TOX genotoxicity assays, various organisms and cells", "no conclusion"),
    ("CCNc1nc(Cl)nc(NC(C)C)n1", "GENE-TOX genotoxicity assays, various organisms and cells", "no conclusion"),
    ("OCCO", "GENE-TOX genotoxicity assays, various organisms and cells", "no conclusion"),
    ("CO[C@H](C)[C@](O)(C(=O)OCC1=CCN2CC[C@H](O)[C@@H]12)C(C)C", "GENE-TOX genotoxicity assays, various organisms and cells", "no conclusion"),
    ("CCNc1nc(Cl)nc(NCC)n1", "GENE-TOX genotoxicity assays, various organisms and cells", "no conclusion"),
]

Complete the entry with mutagenic call for `O=C(NO)NO`
no conclusion

Complete the entry with mutagenic call for `NO`
no conclusion

Complete the entry with mutagenic call for CC(N)Cc1ccccc1 (configuration not stated)
no conclusion

Complete the entry with mutagenic call for `CCOC(=O)N(CC)N=O`
no conclusion

Complete the entry with mutagenic call for `Nc1ccc2cc3ccc(N)cc3nc2c1`
no conclusion

Complete the entry with mutagenic call for `c1cc2c3c(cccc3c1)CC2`
no conclusion

Complete the entry with mutagenic call for `Clc1ccc(C(c2ccc(Cl)cc2)C(Cl)(Cl)Cl)cc1`
no conclusion

----------
system: GENE-TOX genotoxicity assays, various organisms and cells; experiment: GENE-TOX mutagenicity studies; conditions: Species/Cell Type: Human lymphocytes; Assay Type: Sister-chromatid exchange (SCE) in vitro; Assay Code: SCL+D; Dose Response: With dose response; Evaluation Type: Evaluation A (Pre-1980)
Activity calls are given as the source filed them. The rule behind the calls is not given here.

# ENTRY SMILES, mutagenic call
measured = [
    ("COc1cc2c(c3oc(=O)c4c(c13)CCC4=O)[C@@H]1C=CO[C@@H]1O2", "active; positive"),
    ("Nc1ccc(/C=C/c2ccc([N+](=O)[O-])o2)nn1", "active; positive"),
    ("O=c1[nH]c(=O)n([C@H]2C[C@H](O)[C@@H](CO)O2)cc1Br", "active; positive"),
]

----------
system: GENE-TOX genotoxicity assays, various organisms and cells; test: GENE-TOX mutagenicity studies; conditions: Species/Cell Type: Mouse prostate cells; Assay Type: Cell transformation; Assay Code: CTM-; Evaluation Type: Evaluation A (Pre-1980)
Calls of active or inactive are those of the source. The rule behind the calls is not given here.
ASSAY READOUT: mutagenic call

Worked examples follow.
# MOLECULE, mutagenic call
records = [
    ("c1ccc2c(c1)-c1ccc3ccccc3c1C1OC21 (centres undefined)", "inactive; negative"),
    ("O[C@H]1[C@@H]2O[C@@H]2c2cc3ccc4cccc5ccc(c2[C@@H]1O)c3c45", "inactive; negative"),
    ("c1cc2ccc3cc4c(c5ccc(c1)c2c35)[C@H]1O[C@H]1CC4", "inactive; negative"),
    ("c1ccc2c(c1)-c1ccccc1C1OC21 (centres undefined)", "inactive; negative"),
    ("Oc1cc2cc3c(ccc4ccccc43)cc2c2ccccc12", "inactive; negative"),
    ("c1ccc2c(c1)ccc1ccccc12", "inactive; negative"),
]

Complete the entry with mutagenic call for `Oc1cc2cc3ccccc3cc2c2ccccc12`
inactive; negative

Complete the entry with mutagenic call for `Cc1ccc2cc3c(c4c2c1CC4)[C@H](O)[C@@H](O)c1ccccc1-3`
inactive; negative

Complete the entry with mutagenic call for `O[C@@H]1c2ccccc2-c2cc3ccc4ccccc4c3cc2[C@@H]1O`
inactive; negative

----------
system: GENE-TOX genotoxicity assays, various organisms and cells; assay: GENE-TOX mutagenicity studies; conditions: Species/Cell Type: Mouse; Sex: Male; Assay Type: Specific locus test, gene mutation; Assay Code: SLT-; Evaluation Type: Evaluation A (Pre-1980)
Activity calls are given as the source filed them. The rule behind the calls is not given here.
ASSAY READOUT: mutagenic call

# ENTRY SMILES, TEST VALUE
rows = [
    ("Cc1cc(C(C)(C)C)c(O)c(C(C)(C)C)c1", "inactive; negative"),
    ("O=S(O)O", "inactive; negative"),
    ("CCN(CC)CCNc1ccc(CO)c2sc3ccccc3c(=O)c12", "inactive; negative"),
    ("CCN(CC)N=O", "inactive; negative"),
]

----------
Test system: GENE-TOX genotoxicity assays, various organisms and cells
Assay: GENE-TOX mutagenicity studies
Conditions: Species/Cell Type: Mammalian polychromatic erythrocytes; Assay Type: Micronucleus test, chromosome aberrations; Assay Code: MNT-; Evaluation Type: Evaluation B (Post-1980)
Source text: GENE-TOX provides genetic toxicology (mutagenicity) test data from expert peer review of open scientific literature for more than 3,000 chemicals from the United States Environmental Protection Agency (EPA). GENE-TOX was established to select assay systems for evaluation, review data in the scientific literature, and recommend proper testing protocols and evaluation procedures for these systems. GENE-TOX covers the years 1991 - 1998. It is no longer updated. […]
Active and inactive are the calls of the source. How the calls were made is not given here.
ASSAY READOUT: mutagenic call

Worked examples follow.
# COMPOUND, mutagenic call
records = [
    ("FC(F)(Cl)Br", "inactive; negative"),
    ("Cn1sccc1=O", "inactive; negative"),
    ("Cn1c(N)nc2c3cccnc3ccc21", "inactive; negative"),
    ("O=C1OC(O)C(C(Cl)Cl)=C1Cl (stereo not drawn)", "inactive; negative"),
    ("ClCCl", "inactive; negative"),
]

Answer with mutagenic call of `O=C1c2c(O)cccc2Cc2cccc(O)c21` measured for GENE-TOX genotoxicity assays, various organisms and cells.
inactive; negative

Answer with mutagenic call of `CCN(CC)c1ccc2c(-c3ccc(C(=O)O)cc3C(=O)[O-])c3ccc(=[N+](CC)CC)cc-3oc2c1` measured for GENE-TOX genotoxicity assays, various organisms and cells.
inactive; negative

Answer with mutagenic call of `ClN1CCCCC1` measured for GENE-TOX genotoxicity assays, various organisms and cells.
inactive; negative

----------
test system: GENE-TOX genotoxicity assays, various organisms and cells; test: GENE-TOX mutagenicity studies; conditions: Species/Cell Type: Escherichia coli WP2 UVRA; Assay Type: Tryptophan reverse gene mutation; Assay Code: WPU+; Evaluation Type: Evaluation A (Pre-1980)
Calls of active or inactive are those of the source. The rule behind the calls is not given here.
ASSAY READOUT: mutagenic call

Worked examples follow.
# MOLECULE, mutagenic call
rows = [
    ("O=C1OC(CN2CCOCC2)CN1/N=C/c1ccc([N+](=O)[O-])o1 (configuration not stated)", "active; positive"),
    ("CC(=O)OC(OC(C)=O)c1ccc([N+](=O)[O-])o1", "active; positive"),
    ("O=[N+]([O-])c1ccc(-c2ncn[nH]2)o1", "active; positive"),
    ("CNN", "active; positive"),
    ("NNCCO", "active; positive"),
]

Complete the entry with mutagenic call for `O=CNNc1nc(-c2ccc([N+](=O)[O-])o2)cs1`
active; positive

Complete the entry with mutagenic call for `O=[N+]([O-])c1ccc(-c2csc(Cl)n2)o1`
active; positive

----------
test system: GENE-TOX genotoxicity assays, various organisms and cells; assay: GENE-TOX mutagenicity studies; details: Species/Cell Type: Nonhuman; Assay Type: In vivo carcinogenicity studies; Assay Code: CCG+; Evaluation Type: Evaluation A (Pre-1980)
Calls of active or inactive are those of the source. How the calls were made is not given here.

# COMPOUND, call
data = [
    ("S=P(N1CC1)(N1CC1)N1CC1", "active; positive"),
    ("O=C1C2(Cl)C3(Cl)C4(Cl)C(Cl)(Cl)C5(Cl)C3(Cl)C1(Cl)C5(Cl)C24Cl (stereo not drawn)", "active; positive"),
    ("Cc1c2ccccc2c2ccc3cccc4ccc1c2c43", "active; positive"),
]

----------
System: GENE-TOX genotoxicity assays, various organisms and cells
Test: GENE-TOX mutagenicity studies
Settings: Species/Cell Type: Mouse lymphoma (L5178Y) cells; Assay Type: Forward gene mutation at the thymidine kinase (TK) locus; chromosome aberrations; Assay Code: L51+; Evaluation Type: Evaluation A (Pre-1980)
Description: GENE-TOX provides genetic toxicology (mutagenicity) test data from expert peer review of open scientific literature for more than 3,000 chemicals from the United States Environmental Protection Agency (EPA). GENE-TOX was established to select assay systems for evaluation, review data in the scientific literature, and recommend proper testing protocols and evaluation procedures for these systems. GENE-TOX covers the years 1991 - 1998. It is no longer updated. […]
Active and inactive are the calls of the source. How the calls were made is not given here.

# ENTRY SMILES, TGT, mutagenic call
data = [
    ("CCN(CC)CCNc1ccc(CO)c2sc3ccccc3c(=O)c12", "GENE-TOX genotoxicity assays, various organisms and cells", "active; positive"),
    ("CCN(CCO)CCNc1ccc(CO)c2sc3cc(Cl)ccc3c(=O)c12", "GENE-TOX genotoxicity assays, various organisms and cells", "active; positive"),
    ("CNNCc1ccc(C(=O)NC(C)C)cc1", "GENE-TOX genotoxicity assays, various organisms and cells", "active; positive"),
]
